B1: glmS ribozyme (parent)
chain: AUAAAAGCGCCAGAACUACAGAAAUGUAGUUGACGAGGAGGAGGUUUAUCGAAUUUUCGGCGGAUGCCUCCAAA

# Variants of: B1
# run.description: self-cleavage kobs at 160 uM GlcN6P; higher = faster cleavage; RNA array
# experimental.setup: with glucosamine-6-phosphate
This sample holds only a part of the variants without activity.
endpoint: self-cleavage kobs at 160 uM GlcN6P

In the examples that follow, each entry is paired with its recorded self-cleavage kobs at 160 uM GlcN6P.
G13C C34G G35C G43U A48C C67G C70U | < 1e-05 s⁻¹
U54G G66A | 0.00123 s⁻¹
G43U G44A | < 1e-05 s⁻¹
G9C G37A | < 1e-05 s⁻¹
G7C G37U U47C G59U G66U C70U | < 1e-05 s⁻¹
U55G U69A | 7.03e-05 s⁻¹
A48G C67A | < 1e-05 s⁻¹
C34G U54A | < 1e-05 s⁻¹
A14G A15G G35U | < 1e-05 s⁻¹
U47C C70G | 7.93e-05 s⁻¹

As a next step, examine the variant that follows.
Sample U31A A53C ; self-cleavage kobs at 160 uM GlcN6P observed: 0.000229 s⁻¹
